- measurement_target: T1, human KDR-Fc fusion (R&D Systems #357-KD-050) (human, UniProt P35968 20-764)
- T1 construct: bought
- T1 sequence (P35968 20-764): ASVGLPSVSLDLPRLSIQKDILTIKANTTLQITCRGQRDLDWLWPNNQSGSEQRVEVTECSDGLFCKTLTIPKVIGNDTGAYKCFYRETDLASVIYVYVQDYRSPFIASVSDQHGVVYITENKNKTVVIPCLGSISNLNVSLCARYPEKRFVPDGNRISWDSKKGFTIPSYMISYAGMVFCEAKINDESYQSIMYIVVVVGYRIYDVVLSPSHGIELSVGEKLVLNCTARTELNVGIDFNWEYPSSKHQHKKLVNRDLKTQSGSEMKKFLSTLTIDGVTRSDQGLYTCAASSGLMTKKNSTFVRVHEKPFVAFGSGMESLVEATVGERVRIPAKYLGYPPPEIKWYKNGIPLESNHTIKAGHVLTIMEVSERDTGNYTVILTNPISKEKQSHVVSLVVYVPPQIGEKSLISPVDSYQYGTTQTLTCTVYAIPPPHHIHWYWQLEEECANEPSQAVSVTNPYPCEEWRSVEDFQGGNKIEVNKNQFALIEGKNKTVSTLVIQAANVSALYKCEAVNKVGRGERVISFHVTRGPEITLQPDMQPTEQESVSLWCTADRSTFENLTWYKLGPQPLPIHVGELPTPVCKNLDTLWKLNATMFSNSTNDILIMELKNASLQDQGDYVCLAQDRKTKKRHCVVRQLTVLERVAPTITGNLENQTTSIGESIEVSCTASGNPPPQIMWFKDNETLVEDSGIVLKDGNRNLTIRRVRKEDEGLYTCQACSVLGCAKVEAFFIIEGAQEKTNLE
- assay_summary: phage binding screen on KDR-Fc; class legend in paragraph 246
measurement_type: binding result

Recorded binding result, per entry:
binder: YVDCYYDTGRCYHQ [phage isolate YVDCYYDTGRCYHQ]
measurement_type: binding result
recorded_value: binds
--
binder: SNWCEEDWYYCYIT [phage isolate SNWCEEDWYYCYIT]
measurement_type: binding result
recorded_value: binds
--
binder: VNWCEEDWYYCWIT [phage isolate VNWCEEDWYYCWIT]
measurement_type: binding result
recorded_value: binds
--
binder: GVWCDMVTGWCYHG [phage isolate GVWCDMVTGWCYHG]
measurement_type: binding result
recorded_value: binds
--
binder: WVECFMDTGACYTF [phage isolate WVECFMDTGACYTF]
measurement_type: binding result
recorded_value: binds

For the binder PKWCEEDWYYCMIT [phage isolate PKWCEEDWYYCMIT] , what binding result is on record?
binds

Now consider LIECYAHTGLCFDF [phage isolate LIECYAHTGLCFDF] .
binds

Now consider AVTCWALTGHCVEE [phage isolate AVTCWALTGHCVEE] .
binds

Now consider WIQCDRKAGRCSRG [phage isolate WIQCDRKAGRCSRG] .
binds

Now consider HWECYSDTGKCWFF [phage isolate HWECYSDTGKCWFF] .
binds

Now consider WLECYTEFGHCYNF [phage isolate WLECYTEFGHCYNF] .
binds

Now consider WIECHYKTGHCIHS [phage isolate WIECHYKTGHCIHS] .
binds

Now consider WIECYHPDGICYHF [phage isolate WIECYHPDGICYHF] .
binds

Now consider PDWCAADWYYCYIT [phage isolate PDWCAADWYYCYIT] .
binds
